B1: UBE2R2 (parent)
chain: DPQSGELPSERWNPTQNVRTILLS

# Variants of: B1
# test-name: protein stability index of a GFP-peptide fusion (GPS, HEK-293T) (PSI 1-6); higher = more stable;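 also: lentivirally expressed fusions sorted by FACS into six bins by GFP to DsRed ratio, PSI derived from sequencing read proportions per bin multiplied by bin number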
# reported-conditions: c terminus: a fixed tail appended
assay-readout: protein stability index

T15N    3.89
R19S    4.08
W12F    3.92
P14Q    3.93
V18N    4
Q3D    3.9
I21L    3.96
S9K    3.94
V18G    4
L7E    4.02
R19K    3.95
